Assay: HPLC-assay for in-use stability after reconstitution with 4.2% sodium hydrogen carbonate solution (Example 3, peptides SEQ ID NO 11-23)
Format: physicochemical
Details: no excipients; 6h
Ends that are not written are not given here.
parameter: in-use stability, Peptide [%] (%)
Report the value in % with no unit label.

Consider the reported in-use stability, Peptide [%] for these sequences:
Could you tell me which in-use stability, Peptide [%] is on file for TLGEFLKLDRERAKN (listed as Homo sapiens) [BIR-002, Baculoviral IAP repeat-containing 5 (survivin) peptide] ?
96.2

Could you tell me which in-use stability, Peptide [%] is on file for SLWAGVVVL [CHI-001] ?
90.6

Could you tell me which in-use stability, Peptide [%] is on file for TFSYVDPVITSISPKYG (listed as Homo sapiens) [MET-005, Met proto-oncogene peptide] ?
96.0

In the following, a different sequence is considered.
Could you tell me which in-use stability, Peptide [%] is on file for KIQEILTQV (listed as Homo sapiens) [IGF2BP3-001] ?
96.0
